Test system: HCT 116 cells
Assay Explanation: Cell growth assay (CellTiter-Glo 2.0), HCT 116 MSI-H cell line
Condition Label: Homo sapiens, HCT-116, 120 h, read-out: Cell Growth Inhibition GI50 HCT-116
Observation Type: GI50 (nM)

Compound	Reported Value
C[C@@H](/C=C/S(C)(=O)=O)NC(=O)c1cnc(CC(F)(F)F)nc1Oc1ccccc1	1800

P: CC(F)(F)c1ncc(C(=O)N[C@H](/C=C/S(C)(=O)=O)C2CCC(F)(F)CC2)c(Oc2ccccc2)n1
Q: C[C@@H](/C=C/S(C)(=O)=O)NC(=O)c1cnc(CC2CC2)nc1Oc1ccccc1
Problem: Given the entries P and Q , determine which has the lower reported GI50. Refer to your chosen entry by its label in the reply.
Q

* * *

Tested on: HCT 116 cells
Assay Explanation: Cell growth assay (CellTiter-Glo 2.0), HCT 116 MSI-H cell line
Condition Label: Homo sapiens, HCT-116, 120 h, read-out: Cell Growth Inhibition GI50 HCT-116
Observation Type: GI50 (nM)

P: CC(F)(F)c1ncc(C(=O)N[C@H](/C=C/S(C)(=O)=O)COC2CC2)c(Oc2ccccc2)n1 [Example 97]
Q: CC(C)(C)c1ncc(C(=O)N2CC(=CS(=O)(=O)C3CCOCC3)C2)c(Oc2ccccc2)n1 [Example 62]
R: C[C@@H](/C=C/S(C)(=O)=O)NC(=O)c1cnc(C(C)(C)C)nc1O[C@@H]1C[C@@H]2C[C@@H]2C1 [Example 157]
S: CC(C)(C)c1ncc(C(=O)N[C@H](/C=C/S(C)(=O)=O)C2CC(F)(F)C2)c(Oc2ccccc2)n1 [Example 67]
// ascending sort on GI50 for the entries above Answer by naming the labels in the order asked.
S, P, Q, R

* * *

Measurement Target: WRN C727 (Homo sapiens)
Construct: endogenous in cells; host or cells: OCI-AML2
Sequence (Q14191 whole entry): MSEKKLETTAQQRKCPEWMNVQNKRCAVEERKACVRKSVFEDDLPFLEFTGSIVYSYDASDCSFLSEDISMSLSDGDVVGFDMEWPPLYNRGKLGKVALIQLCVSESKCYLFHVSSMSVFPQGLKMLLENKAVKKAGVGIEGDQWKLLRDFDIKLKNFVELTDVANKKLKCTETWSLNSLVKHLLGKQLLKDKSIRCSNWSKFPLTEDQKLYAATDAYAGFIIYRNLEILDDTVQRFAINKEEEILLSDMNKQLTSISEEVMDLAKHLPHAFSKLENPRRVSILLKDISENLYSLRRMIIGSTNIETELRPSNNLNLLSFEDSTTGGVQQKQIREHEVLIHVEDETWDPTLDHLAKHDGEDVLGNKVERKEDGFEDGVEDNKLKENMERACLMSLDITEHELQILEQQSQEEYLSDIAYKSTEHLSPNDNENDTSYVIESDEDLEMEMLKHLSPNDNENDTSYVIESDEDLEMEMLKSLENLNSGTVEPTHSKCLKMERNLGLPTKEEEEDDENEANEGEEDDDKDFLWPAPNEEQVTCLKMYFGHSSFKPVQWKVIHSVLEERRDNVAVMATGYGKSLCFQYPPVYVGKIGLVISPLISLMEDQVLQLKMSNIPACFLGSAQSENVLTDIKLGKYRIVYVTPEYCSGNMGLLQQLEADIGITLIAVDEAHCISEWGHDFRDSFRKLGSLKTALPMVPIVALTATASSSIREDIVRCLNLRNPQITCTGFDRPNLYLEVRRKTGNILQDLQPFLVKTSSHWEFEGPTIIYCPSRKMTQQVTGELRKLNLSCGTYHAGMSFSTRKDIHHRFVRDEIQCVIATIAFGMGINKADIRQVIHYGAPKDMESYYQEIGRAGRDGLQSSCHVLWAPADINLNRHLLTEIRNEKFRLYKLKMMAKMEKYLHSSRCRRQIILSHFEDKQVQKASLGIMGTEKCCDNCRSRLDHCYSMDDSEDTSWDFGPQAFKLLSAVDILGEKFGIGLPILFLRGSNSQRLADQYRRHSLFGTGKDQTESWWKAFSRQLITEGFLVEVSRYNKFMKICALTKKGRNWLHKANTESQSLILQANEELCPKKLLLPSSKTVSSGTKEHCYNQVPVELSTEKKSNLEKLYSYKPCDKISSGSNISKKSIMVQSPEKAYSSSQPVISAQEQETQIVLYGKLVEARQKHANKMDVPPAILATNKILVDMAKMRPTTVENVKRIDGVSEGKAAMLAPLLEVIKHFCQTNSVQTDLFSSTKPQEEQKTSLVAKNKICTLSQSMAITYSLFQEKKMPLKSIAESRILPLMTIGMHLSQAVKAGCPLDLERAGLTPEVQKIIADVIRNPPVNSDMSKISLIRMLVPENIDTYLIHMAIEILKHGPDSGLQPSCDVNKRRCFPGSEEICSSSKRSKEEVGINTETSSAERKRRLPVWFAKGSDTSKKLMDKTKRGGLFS
Assay Explanation: Target engagement, in situ (cell), OCI-AML2
Type: cell-based
Condition Label: OCI-AML2 cells, read-out: OCI-AML2 WRN C727 TE50 in situ (cell)
pIC50: −log10 of the molar value.
Observation Type: pIC50

Worked set:
Compound	pIC50
CC[C@@H](/C=C/S(C)(=O)=O)NC(=O)c1cnc(C2CCCC2)nc1Oc1ccccc1	6.70
COCC(/C=C/S(C)(=O)=O)NC(=O)c1cnc(C(F)(F)C2CC2)nc1Oc1ccccc1 (stereo in doubt)	7.80

P: CC(C)(C)c1ncc(C(=O)N[C@H](/C=C/S(C)(=O)=O)C2CC2)c(Oc2ccccc2)n1
Q: CCc1cccc(Oc2nc(C3CCCC3)ncc2C(=O)N[C@@H](C)/C=C/S(C)(=O)=O)c1
Problem: Given the entries P and Q , determine which has the lower reported pIC50. Refer to your chosen entry by its label in the reply.
Q
(Q: 4.30, P: 7.80)

* * *

Measurement Target: WRN C727 (Homo sapiens)
Construct: endogenous in cells; host or cells: OCI-AML2
Assay Explanation: Target engagement, in vitro (lysate), OCI-AML2
Format: binding
Condition Label: read-out: OCI-AML2 WRN C727 TE50 in vitro (lysate)
Observation Type: IC50 (µM)

Worked set:
Molecule	Measurement Target	Readout Units	Reported Value
CCC(F)(F)c1ncc(C(=O)N[C@H](/C=C/S(C)(=O)=O)C2CC2)c(Oc2ccccc2)n1 [Example 230]	WRN C727 (Homo sapiens)	µM	0.81
CC(=O)C=C1CN(C(=O)c2cnc(C(C)(C)C)nc2Oc2ccccc2)C1 [Example 190]	WRN C727 (Homo sapiens)	µM	0.69
C[C@@H](/C=C/S(C)(=O)=O)NC(=O)c1cc2c(cc1Oc1ccccc1)CCC2=O [Example 247]	WRN C727 (Homo sapiens)	µM	30
CS(=O)(=O)C=C1CN(C(=O)c2cnc([C@H]3C[C@@H](C)C3)nc2Oc2ccccc2)C1 (single isomer, unassigned) [Example 50]	WRN C727 (Homo sapiens)	µM	0.28

1: C[C@@H](/C=C/S(C)(=O)=O)NC(=O)c1cnc(C2(F)CC2)nc1Oc1ccccc1 [Example 99]
2: Cn1ccc2cc(C(=O)N[C@H](/C=C/S(C)(=O)=O)C3CC3)c(Oc3ccccc3)nc21 [Example 250]
Problem: Given the entries 1 and 2 , determine which has the lower reported IC50. Refer to your chosen entry by its label in the reply.
2
(2: 0.62 µM, 1: 10 µM)

* * *

Measurement Target: WRN C727 (Homo sapiens)
Construct: endogenous in cells; host or cells: OCI-AML2
Assay Explanation: Target engagement, in vitro (lysate), OCI-AML2
Format: binding
Condition Label: read-out: OCI-AML2 WRN C727 TE50 in vitro (lysate)
Some compounds, each annotated with its measured IC50.

Worked set:
Compound	Reported Value
CCc1ccc(Oc2nc(C3CCCC3)ncc2C(=O)N[C@@H](C)/C=C/S(C)(=O)=O)cc1	> 100 µM
C[C@@H](/C=C/S(C)(=O)=O)NC(=O)c1cnc(C2CCCC2)nc1Oc1cccc2ccccc12	> 100 µM
C[C@@H](/C=C/S(C)(=O)=O)NC(=O)c1cnc(C2CC2)nc1O[C@H]1C[C@H](Cl)C1	> 100 µM
CCc1ncc(C(=O)NC/C=C/S(C)(=O)=O)c(Oc2ccccc2)n1	> 100 µM

Which measured IC50 value corresponds to CC(C)(C)c1ncc(C(=O)NC2(C=CS(C)(=O)=O)CC2)c(Oc2ccccc2)n1 (racemic) ?
> 100 µM

Which measured IC50 value corresponds to "C[C@@H](/C=C/S(=O)(=O)C1CC1)NC(=O)c1cnc(C2CC2)nc1Oc1ccccc1" ?
> 100 µM

Which measured IC50 value corresponds to "CS(=O)(=O)C1=CCN(C(=O)c2cnc(C3CC3)nc2Oc2ccccc2)C1" ?
> 100 µM

Which measured IC50 value corresponds to "CS(=O)(=O)/C=C/CNC(=O)c1cnc(-c2ccn[nH]2)nc1Oc1ccccc1" ?
> 100 µM

Which measured IC50 value corresponds to "C[C@@H](/C=C/S(C)(=O)=O)NC(=O)c1cnc(C2CCOCC2)nc1Oc1ccccc1" ?
> 100 µM

* * *

Measurement Target: hWRN(519-1227)_C-H3CV-GFP-10His (Homo sapiens)
Assay Explanation: Helicase Assay for WRN Inhibition (ATP-dependent, fluorescence based)
Condition Label: WRN Helicase IC50, 30 min preincubation with ATP, 30 min reaction
pIC50: −log10 of the molar value.
Observation Type: pIC50

Worked set:
Molecule	Reported Value
Cc1cc(C(=O)N[C@@H](C)/C=C/S(C)(=O)=O)c(Oc2ccccc2)nc1C1CCCC1 [Example 262]	5.19
CN(C)C(=O)C[C@@H](/C=C/S(C)(=O)=O)NC(=O)c1cnc(C(C)(C)C)nc1Oc1ccccc1 [Example 71]	6.57
C[C@@H](/C=C/S(C)(=O)=O)NC(=O)c1cc2ccccc2nc1Oc1ccccc1 [Example 242]	5.01
CNc1ncc(C(=O)N[C@H](/C=C/S(C)(=O)=O)C2CC2)c(Oc2ccccc2)n1 [Example 178]	4.82
C[C@@H](/C=C/S(C)(=O)=O)NC(=O)c1cnc(C2(C(F)(F)F)CC2)nc1Oc1ccccc1 [Example 101]	5.96
CC(C)(C)c1ncc(C(=O)N[C@H](/C=C/S(C)(=O)=O)C2CC2)c(O[C@H]2C[C@@H]3C[C@@H]3C2)n1 [Example 160]	6.05
CC(C)(C)OC[C@@H](/C=C/S(C)(=O)=O)NC(=O)c1cnc(C(C)(F)F)nc1Oc1ccccc1 [Example 96]	6.70
C[C@@H](/C=C/S(C)(=O)=O)NC(=O)c1cnc(C2CC2)c(F)c1Oc1ccccc1 [Example 205]	4.70
C[C@@H](/C=C/S(C)(=O)=O)NC(=O)c1cnc(C2CCCO2)nc1Oc1ccccc1 (stereo partly drawn) [Example 78]	5.03
C[C@@H](/C=C/S(C)(=O)=O)NC(=O)c1cnc(C2CCC2)nc1Oc1ccccc1 [Example 44]	6.04

1: CS(=O)(=O)/C=C/[C@@H](NC(=O)c1cnc(C2CC2)nc1Oc1ccccc1)C1CC(F)(F)C1 [Example 30]
2: CC(C)(C)c1ncc(C(=O)N[C@H](/C=C/S(C)(=O)=O)C2CCOCC2)c(Oc2ccccc2)n1 [Example 70]
Could you please tell me which of these two has the higher pIC50: 1 or 2 ? Refer to your chosen entry by its label in the reply.
2
(2: 6.62, 1: 6.35)

a: CS(=O)(=O)/C=C/[C@@H](NC(=O)c1cnc(N2CCC2)nc1Oc1ccccc1)C1CC1 [Example 181]
b: CS(=O)(=O)/C=C/CNC(=O)c1ccc(C2CCCC2)cc1OC1CCCC1 [Example 198]
c: C[C@@H](/C=C/S(C)(=O)=O)NC(=O)c1cnc(C(C)(C)O)nc1Oc1ccccc1 [Example 218]
d: C[C@@H]1CC[C@H](c2ncc(C(=O)N[C@@H](C)/C=C/S(C)(=O)=O)c(Oc3ccccc3)n2)C1 (racemic) [Example 215]
e: C[C@@H](/C=C/S(C)(=O)=O)NC(=O)c1cnc(C(C)(C)C)nc1OC1(C#N)CCCC1 [Example 161]
Order each entry by recorded pIC50, climbing from the minimum. Answer by naming the labels in the order asked.
e, b, c, d, a
